- assay overview: Viability Counterscreen for CMV-Luciferase Assay of Inhibitors of ATXN expression; note: nearly all actives have a fitted effect of over 55% in size
- measurement parameters: HEK-293 CMV-luciferase cells viability, protease fluorescence, 24 h
Among all 2,100 compounds or so, about 320 (15%) were called active. Inconclusive results (about 52%) are left out. Calls come from the whole dose curve; as a rule, active = well fitted cell-killing curve with a large enough effect; inconclusive = small, poorly fitted or top-dose-only effect, or effect the other way; inactive = flat fitted curve, though single readings scatter. Some of the results follow.
Thanks in advance; please answer with one of these: Y (active), N (inactive)

Assay result, entry "FC(F)(F)c1ccc(N2CCN(c3cc(-c4ccccc4)nc4ncnn34)CC2)nc1" — outcome?
N

Assay result, entry "CCN(CC)CCNc1ccc(CO)c2sc3ccccc3c(=O)c12" — outcome?
Y

Assay result, entry "COc1ccc(-c2c[n+]3c(n2-c2ccc(C)cc2)CCCCC3)cc1" — outcome?
Y

Assay result, entry "COc1ccc(-c2c[n+]3c4n2CCCCC4=C(c2ccc(Br)cc2)C3)cc1" — outcome?
N

Assay result, entry NC(Cc1ccc(C(F)(F)F)cc1)c1csc(Nc2nccc(C(F)(F)F)n2)n1 (stereo unspecified) — outcome?
N

Assay result, entry "c1ccc(Nc2nc(N3CCCCC3)nc(N3CCNCC3)n2)cc1" — outcome?
N

Assay result, entry "COc1ccc(N2C3=C(CC4=C2CC(C)(C)CC4=O)C(=O)CC(C)(C)C3)cc1" — outcome?
N

Assay result, entry "CCOc1ccc(-c2c[n+]3c(n2-c2ccccc2)CCCCC3)cc1" — outcome?
N

Assay result, entry "Cc1ccc2nc(N(CCCN(C)C)C(=O)c3ccc(S(=O)(=O)N4CCCCCC4)cc3)sc2c1" — outcome?
N

Assay result, entry "CCn1c2ccccc2c2cc(NC(=O)COC(=O)Cc3cn4ccsc4n3)ccc21" — outcome?
N

Assay result, entry "O=C(Nc1ccc(N2CCN(C(=O)c3ccco3)CC2)c(Cl)c1)c1c(F)c(F)c(F)c(F)c1F" — outcome?
N

Assay result, entry "CCOC(=O)N1CCN(c2ccnc3cc(Cl)ccc23)CC1" — outcome?
N

Assay result, entry "O=c1c2ccccc2sc2c(CO)ccc(NCCN3CCCCC3)c12" — outcome?
Y

Assay result, entry COc1cccc2c1C(=N)c1c(O)c3c(c(O)c1C2=O)CC(O)(C(C)=O)CC3OC1CC(N)C(O)C(C)O1 (stereo unspecified) — outcome?
Y

Assay result, entry "Cc1cc(OCc2nc(N)nc(N)c2-c2ccc(Cl)c(Cl)c2)ccc1[N+](=O)[O-]" — outcome?
N

Assay result, entry "COC(=O)c1ccc(Oc2nc(NC(C)C)nc(N(C)C)n2)cc1" — outcome?
N

Assay result, entry "Cc1ccc(C(=O)N(CCCN(C)C)c2nc3ccc(Cl)cc3s2)cc1C" — outcome?
Y

Assay result, entry "COc1cccc(CC(=O)Nc2nc(-c3ccc(OC)c(OC)c3)cs2)c1" — outcome?
Y

Assay result, entry "CCOC(=O)c1c(NC(=O)CSc2nnnn2-c2ccccc2)sc2c1CC(C)(C)NC2(C)C" — outcome?
N

Assay result, entry "CCN(CC)CCNC(=O)c1ccc(NC(=O)Cc2cccc3ccccc23)cc1" — outcome?
N

Assay result, entry "O=C(CCCN1CCc2[nH]c3ccc(F)cc3c2C1)c1ccc(F)cc1" — outcome?
N
